Values were extracted from PubChem BioAssay AID1963867.

Tested on: KRAS-mutant PDC tumor spheroid with HUVEC/MSC, viability
assay: Anticancer human tumor 327498-153-R-J2-PDC patient-derived uterine carcinosarcoma cell line growth inhibition [KRAS2]
applied conditions: second compound 1 µM; first compound 10 µM; stronger effect = lower value
endpoint: viability, T/C (%)
# number only, unit % dropped from output

Worked cases, viability, T/C given:
{"compound": "CCNC(=O)CC1N=C(c2ccc(Cl)cc2)c2cc(OC)ccc2-n2c(C)nnc21 (stereo not given) + C=CC(=O)N1CCN(c2nc(OCC3CCCN3C)nc3c2CCN(c2cccc4cccc(C)c24)C3)CC1CC#N", "target or test system": "KRAS-mutant PDC tumor spheroid with HUVEC/MSC, viability", "unit abbreviation": "%", "viability, T/C": 18.9}
{"compound": "CC1(C)CCC(CN2CCN(c3ccc(C(=O)NS(=O)(=O)c4ccc(NCC5CCOCC5)c([N+](=O)[O-])c4)c(Oc4cnc5[nH]ccc5c4)c3)CC2)=C(c2ccc(Cl)cc2)C1 + COc1cc2nc(C)nc(NC(C)c3cc(N)cc(C(F)(F)F)c3)c2cc1OC1CCOC1", "target or test system": "KRAS-mutant PDC tumor spheroid with HUVEC/MSC, viability", "unit abbreviation": "%", "viability, T/C": 0.73}
{"compound": "COc1cc(Nc2ncc3c(n2)-c2ccc(Cl)cc2C(c2c(F)cccc2OC)=NC3)ccc1C(=O)O + CNCc1ccccc1-c1csc(C(C)Nc2nc(C)nc3cc(OC)c(OC)cc23)c1", "target or test system": "KRAS-mutant PDC tumor spheroid with HUVEC/MSC, viability", "unit abbreviation": "%", "viability, T/C": 11.6}
{"compound": "Cn1nccc1Nc1nccc(-c2cc3c(s2)C(C)(C)N(CCN2CCOCC2)C3=O)n1 + CC1OCC2(CCN(c3cnc(Sc4ccnc(N)c4Cl)c(N)n3)CC2)C1N", "target or test system": "KRAS-mutant PDC tumor spheroid with HUVEC/MSC, viability", "unit abbreviation": "%", "viability, T/C": 26.4}

We now examine a further compound.
## Task Which viability, T/C is reported for this compound? O=C(c1cc(Cc2n[nH]c(=O)c3ccccc23)ccc1F)N1CCN(C(=O)C2CC2)CC1 + C=CC(=O)N1CCN(c2nc(=O)n(-c3c(C)ccnc3C(C)C)c3nc(-c4c(O)cccc4F)c(F)cc23)C(C)C1
## Result 16.4

---

Reported values of viability, T/C for individual entries
Tested on: KRAS-mutant PDC tumor spheroid with HUVEC/MSC, viability
assay: Anticancer human tumor 327498-153-R-J2-PDC cell line growth inhibition [KRAS2];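 also: spheroids exposed to agents for seven days before reading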;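 as to viability, T/C: 100% = DMSO vehicle wells so lower means fewer viable cells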
applied conditions: second compound 1 µM; first compound 0.001 µM; stronger effect = lower value
// note: answer is a bare numeric in %

{"compound": "CC(C)n1nc(-c2ccc3oc(N)nc3c2)c2c(N)ncnc21 + CC1OCC2(CCN(c3cnc(Sc4ccnc(N)c4Cl)c(N)n3)CC2)C1N", "viability, T/C, %": 32.8}
{"compound": "CN(C)C/C=C/C(=O)Nc1cc2c(Nc3ccc(F)c(Cl)c3)ncnc2cc1O[C@H]1CCOC1 + C=CC(=O)N1CCN(c2nc(=O)n(-c3c(C)ccnc3C(C)C)c3nc(-c4c(O)cccc4F)c(F)cc23)C(C)C1", "viability, T/C, %": 97.5}
{"compound": "CC(C)n1nc(-c2ccc3oc(N)nc3c2)c2c(N)ncnc21 + COc1cc2nc(C)nc(NC(C)c3cc(N)cc(C(F)(F)F)c3)c2cc1OC1CCOC1", "viability, T/C, %": 63.7}
{"compound": "CN(C)C/C=C/C(=O)Nc1cc2c(Nc3ccc(F)c(Cl)c3)ncnc2cc1O[C@H]1CCOC1 + CC1OCC2(CCN(c3cnc(Sc4ccnc(N)c4Cl)c(N)n3)CC2)C1N", "viability, T/C, %": 109}
{"compound": "CC(C)n1nc(-c2ccc3oc(N)nc3c2)c2c(N)ncnc21 + CNCc1ccccc1-c1csc(C(C)Nc2nc(C)nc3cc(OC)c(OC)cc23)c1", "viability, T/C, %": 63.9}

Next:
## Task Value lookup for viability, T/C; key = Cn1ncnc1[C@H]1c2n[nH]c(=O)c3cc(F)cc(c23)N[C@@H]1c1ccc(F)cc1 + CC1OCC2(CCN(c3cnc(Sc4ccnc(N)c4Cl)c(N)n3)CC2)C1N
## Result 37.2

---

Property: viability, T/C; scope: individual molecules
System: KRAS-mutant PDC tumor spheroid with HUVEC/MSC, viability
assay: Anticancer human tumor 327498-153-R-J2-PDC cell line growth inhibition [KRAS2];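 also: spheroids exposed to agents for seven days before reading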;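 as to viability, T/C: 100% = DMSO vehicle wells so lower means fewer viable cells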
applied conditions: second compound 1 µM; first compound 0.001 µM; stronger effect = lower value
Report the figure in % without appending any unit label.

Consider the following illustrative entries.
{"molecule": "CC(=O)Nc1cccc(-n2c(=O)n(C3CC3)c(=O)c3c(Nc4ccc(I)cc4F)n(C)c(=O)c(C)c32)c1 + CC1OCC2(CCN(c3cnc(Sc4ccnc(N)c4Cl)c(N)n3)CC2)C1N", "viability, T/C / %": 34.9}
{"molecule": "CN(C)C/C=C/C(=O)Nc1cc2c(Nc3ccc(F)c(Cl)c3)ncnc2cc1O[C@H]1CCOC1 + C=CC(=O)N1CCN(c2nc(OCC3CCCN3C)nc3c2CCN(c2cccc4cccc(C)c24)C3)CC1CC#N", "viability, T/C / %": 54.9}

Next molecule, viability, T/C to be filled in.
## Task Please look up its viability, T/C: CC(C)n1nc(-c2ccc3oc(N)nc3c2)c2c(N)ncnc21 + C=CC(=O)N1CCN(c2nc(=O)n(-c3c(C)ccnc3C(C)C)c3nc(-c4c(O)cccc4F)c(F)cc23)C(C)C1
## Result 38

---

Tested on: KRAS-mutant PDC tumor spheroid with HUVEC/MSC, viability
assay: Anticancer human tumor 327498-153-R-J2-PDC cell line growth inhibition [KRAS2];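 also: spheroids exposed to agents for seven days before reading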
applied conditions: curve of first compound; second compound 0.316 µM
Source text: Multicellular complex tumor spheroid response to RAS pathway inhibitors in combination with a targeted agents in patient-derived cell lines with oncogenic KRAS variants from multiple cancer types A high-throughput screen of multi-cell type tumor spheroids was designed to identify active combinations of targeted small molecules and KRAS pathway inhibitors. […] Compounds. […] If the clinical Cmax for an agent had not been determined, the highest concentration tested was 10 microM. […]
Please note: IC50 exactly at 600 nM is NO. Only values below 600 nM get YES.

{"molecule": "CC(C)NCC(C(=O)N1CCN(c2ncnc3c2C(C)CC3O)CC1)c1ccc(Cl)cc1 (stereo not given) + C=CC(=O)N1CCN(c2nc(OCC3CCCN3C)nc3c2CCN(c2cccc4cccc(C)c24)C3)CC1CC#N", "target or test system": "KRAS-mutant PDC tumor spheroid with HUVEC/MSC, viability", "discrete label": "YES"}

## Task Does the reported IC50 of the following molecule sit strictly below 600 nM? COC(=O)c1ccc2c(C(=Nc3ccc(N(C)C(=O)CN4CCN(C)CC4)cc3)c3ccccc3)c(O)[nH]c2c1 + COc1cc2nc(C)nc(NC(C)c3cc(N)cc(C(F)(F)F)c3)c2cc1OC1CCOC1
## Result YES

## Task Please check: IC50 for CC(C)NCC(C(=O)N1CCN(c2ncnc3c2C(C)CC3O)CC1)c1ccc(Cl)cc1 (stereo not given) + CNCc1ccccc1-c1csc(C(C)Nc2nc(C)nc3cc(OC)c(OC)cc23)c1 , strictly under 600 nM or not?
## Result YES

## Task Threshold test, IC50 < 600 nM: CC1(C)CCC(CN2CCN(c3ccc(C(=O)NS(=O)(=O)c4ccc(NCC5CCOCC5)c([N+](=O)[O-])c4)c(Oc4cnc5[nH]ccc5c4)c3)CC2)=C(c2ccc(Cl)cc2)C1 + CC1OCC2(CCN(c3cnc(Sc4ccnc(N)c4Cl)c(N)n3)CC2)C1N
## Result NO

---

System: KRAS-mutant PDC tumor spheroid with HUVEC/MSC, viability
assay: Anticancer human tumor 327498-153-R-J2-PDC cell line growth inhibition [KRAS2];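 also: spheroids exposed to agents for seven days before reading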;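 as to viability, T/C: 100% = DMSO vehicle wells so lower means fewer viable cells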
applied conditions: second compound 1 µM; first compound 10 µM; stronger effect = lower value
endpoint: viability, T/C (%)
Give the value in % but do not write % after it.

A selection of reference data follows.
{"molecule": "O=C(c1cc(Cc2n[nH]c(=O)c3ccccc23)ccc1F)N1CCN(C(=O)C2CC2)CC1 + CNCc1ccccc1-c1csc(C(C)Nc2nc(C)nc3cc(OC)c(OC)cc23)c1", "target or test system": "KRAS-mutant PDC tumor spheroid with HUVEC/MSC, viability", "unit abbreviation": "%", "viability, T/C": 19.1}
{"molecule": "Cn1nccc1Nc1nccc(-c2cc3c(s2)C(C)(C)N(CCN2CCOCC2)C3=O)n1 + CNCc1ccccc1-c1csc(C(C)Nc2nc(C)nc3cc(OC)c(OC)cc23)c1", "target or test system": "KRAS-mutant PDC tumor spheroid with HUVEC/MSC, viability", "unit abbreviation": "%", "viability, T/C": 34.1}
{"molecule": "CC(C)NCC(C(=O)N1CCN(c2ncnc3c2C(C)CC3O)CC1)c1ccc(Cl)cc1 (stereo not given) + COc1cc2nc(C)nc(NC(C)c3cc(N)cc(C(F)(F)F)c3)c2cc1OC1CCOC1", "target or test system": "KRAS-mutant PDC tumor spheroid with HUVEC/MSC, viability", "unit abbreviation": "%", "viability, T/C": 3.46}
{"molecule": "COC(=O)c1ccc2c(C(=Nc3ccc(N(C)C(=O)CN4CCN(C)CC4)cc3)c3ccccc3)c(O)[nH]c2c1 + CC1OCC2(CCN(c3cnc(Sc4ccnc(N)c4Cl)c(N)n3)CC2)C1N", "target or test system": "KRAS-mutant PDC tumor spheroid with HUVEC/MSC, viability", "unit abbreviation": "%", "viability, T/C": 11.4}
{"molecule": "CC1(C)CCC(CN2CCN(c3ccc(C(=O)NS(=O)(=O)c4ccc(NCC5CCOCC5)c([N+](=O)[O-])c4)c(Oc4cnc5[nH]ccc5c4)c3)CC2)=C(c2ccc(Cl)cc2)C1 + CNCc1ccccc1-c1csc(C(C)Nc2nc(C)nc3cc(OC)c(OC)cc23)c1", "target or test system": "KRAS-mutant PDC tumor spheroid with HUVEC/MSC, viability", "unit abbreviation": "%", "viability, T/C": 1.07}
{"molecule": "COc1cc2nccc(Oc3ccc(NC(=O)C4(C(=O)Nc5ccc(F)cc5)CC4)cc3)c2cc1OC + CNCc1ccccc1-c1csc(C(C)Nc2nc(C)nc3cc(OC)c(OC)cc23)c1", "target or test system": "KRAS-mutant PDC tumor spheroid with HUVEC/MSC, viability", "unit abbreviation": "%", "viability, T/C": 0.3}

## Task // lookup viability, T/C for COc1cc2nccc(Oc3ccc(NC(=O)C4(C(=O)Nc5ccc(F)cc5)CC4)cc3)c2cc1OC + C=CC(=O)N1CCN(c2nc(=O)n(-c3c(C)ccnc3C(C)C)c3nc(-c4c(O)cccc4F)c(F)cc23)C(C)C1
## Result 1.1

## Task Look up viability, T/C for this molecule: CCNC(=O)CC1N=C(c2ccc(Cl)cc2)c2cc(OC)ccc2-n2c(C)nnc21 (stereo not given) + CC1OCC2(CCN(c3cnc(Sc4ccnc(N)c4Cl)c(N)n3)CC2)C1N
## Result 16.8

## Task Item O=C(c1cc(Cc2n[nH]c(=O)c3ccccc23)ccc1F)N1CCN(C(=O)C2CC2)CC1 + COc1cc2nc(C)nc(NC(C)c3cc(N)cc(C(F)(F)F)c3)c2cc1OC1CCOC1 has what recorded viability, T/C?
## Result 18.7

## Task Requested read-out: viability, T/C. Entry: CC1(C)CCC(CN2CCN(c3ccc(C(=O)NS(=O)(=O)c4ccc(NCC5CCOCC5)c([N+](=O)[O-])c4)c(Oc4cnc5[nH]ccc5c4)c3)CC2)=C(c2ccc(Cl)cc2)C1 + C=CC(=O)N1CCN(c2nc(=O)n(-c3c(C)ccnc3C(C)C)c3nc(-c4c(O)cccc4F)c(F)cc23)C(C)C1
## Result 1.34
